# target_or_test_system: Bile acid receptor (Homo sapiens)
# Sequence (Q96RI1 whole entry): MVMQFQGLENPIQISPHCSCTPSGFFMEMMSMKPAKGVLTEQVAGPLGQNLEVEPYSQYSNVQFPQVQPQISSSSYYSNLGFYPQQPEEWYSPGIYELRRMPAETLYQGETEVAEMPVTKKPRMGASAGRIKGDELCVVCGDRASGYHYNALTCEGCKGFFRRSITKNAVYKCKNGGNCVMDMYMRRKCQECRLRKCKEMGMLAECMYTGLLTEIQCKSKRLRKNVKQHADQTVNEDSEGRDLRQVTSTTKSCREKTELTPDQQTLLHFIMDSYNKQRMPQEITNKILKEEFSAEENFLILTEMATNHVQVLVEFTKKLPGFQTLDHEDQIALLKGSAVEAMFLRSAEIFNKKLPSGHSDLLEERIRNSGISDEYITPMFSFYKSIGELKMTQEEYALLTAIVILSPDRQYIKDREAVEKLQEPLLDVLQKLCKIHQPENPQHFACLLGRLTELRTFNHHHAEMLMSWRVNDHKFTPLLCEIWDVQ
# assay_details: Agonist activity at human full length FXR expressed in HeLa cells cotransfected with pSG5-human RXR after 24 hrs by Dual-Glo luciferase reporter gene assay
pEC50: −log10 of the molar value.
experimental_endpoint: pEC50

Example compounds with recorded pEC50:
Cc1ccccc1-c1noc(-c2ccc(C(=O)O)cc2)n1 ... 6.66
Cc1ccc(-c2noc(-c3ccc(Cl)cc3)n2)cc1 ... 6.39
Brc1ccc(-c2nc(-c3ccccc3)no2)cc1 ... 6.46

1: CCN(CC)c1ccc2cc(-c3nc(-c4ccccc4)no3)c(=O)oc2c1
2: COc1ccc(-c2nc(-c3ccccc3C)no2)cc1
## Task Hi there, can you help? I need to know whether 1 or 2 has lower measured pEC50. Provide the label of your selected option as the answer.
## Result 1

A: c1ccc(-c2noc(-c3ccccc3)n2)cc1
B: Cc1ccccc1-c1noc(-c2cccc(C(=O)O)c2)n1
C: COc1ccc(-c2nc(-c3cccc(C(F)(F)F)c3)no2)cc1
## Task rank_up(items): orders items by reported pEC50 in ascending numerical order. Give your ranking as a list of the labels in the requested order.
## Result C, A, B
